# Tested on: Trametes versicolor laccase
# assay text: Laccase inhibitor evaluation: rate of ABTS^−2 oxidation at varied inhibitor and substrate concentrations (1/V versus [I] plots)
# Format: biochemical
# measurement context: substrate binding to laccase; read-out: dissociation constant, Kd of the laccase substrate
pKd: −log10 of the molar value. Structures can show the parent of a compound that is named as a salt.
outcome measure: pKd

pKd in this record for CCn1c(=NN=c2sc3cc(S(=O)(=O)O)ccc3n2CC)sc2cc(S(=O)(=O)O)ccc21 [ABTS^−2, diammonium salt, reference compound] : 3.62 to 3.92
